Where do the numbers come from? From PubChem BioAssay (NCI).

# Test system: SF-268 CNS
# experiment description: NCI tumour cell line growth inhibition, 48 h
TGI by entry:

# example entries with known answers
{"columns": ["molecule", "assay result"],
 "data": [
  ["CCOC(=O)C1=CC(C)(C(=O)OCC)Nc2c(nc(SC)n(C)c2=O)N1 (configuration not stated)", "> 10 µM"],
  ["CCCCCCCC(=O)OCC1OC(n2cc(F)c(=O)[nH]c2=O)C(NC(=O)OCc2ccccc2)C(O)C1O (configuration not stated)", "> 100 µM"],
  ["CC(=O)OCc1ccc(O)c(C=O)c1", "> 100 µM"],
  ["COC12OC3CC4(C)C(=CC3OC(OC(C)C1O)C2O)CCC1C4CCC2(C)C(c3ccc(=O)oc3)CCC12O (configuration not stated)", "0.00157 µM"],
  ["COc1ccc2c3c(c4ccccc4cc13)C(=O)N(CCN(C)CCN)C2=O", "1.49 µM"],
  ["O=C(Cn1c(=O)oc2ccc(C(=O)c3ccccc3Cl)cc21)c1ccc([N+](=O)[O-])cc1", "> 100 µM"],
  ["S=c1nc2sc3c(c2c(Nc2ccc(Br)cc2)[nH]1)CCN(N1CCc2c(sc4nc(=S)[nH]c(Nc5ccc(Br)cc5)c24)C1)C3", "> 50 µM"],
  ["CCC(=O)C(C)C(=O)C(=O)C(=O)OC (configuration not stated)", "> 100 µM"]
]}

[in] Can you look up the measured TGI of O=C(NN1C(=O)CSC1c1ccco1)c1ccncc1 (configuration not stated) for me?
[out] > 100 µM

[in] Same read-out for CN(C)CCNC(=O)c1cccc2[nH]c(-c3ccncc3)nc12 ?
[out] 47.4 µM

[in] Same read-out for O=S(=O)(O)c1cc(Nc2ccnc3ccccc23)c2c(S(=O)(=O)O)cc(S(=O)(=O)O)cc2c1 ?
[out] > 100 µM

[in] Same read-out for COP(=O)(OC)c1ccc(NCc2cc(O)ccc2O)cc1 ?
[out] 43.6 µM
